Form field: INHIBITION (one value per entry).
Test system: Plasmodium berghei
testDetails: Screen against P. berghei liver stage (PbLuc), transformed with Luciferase, at 10uM
Assay type: functional, HepG2
experimentalContext: tested at 10 uM
The whole screen tested about 69,000 compounds, of which about 8,600 (12%) showed an effect of 50% or more. The sample as a whole holds a higher share of strong results than the screen did.
Your answer should be a number followed by the unit of measure.

Return INHIBITION (reported value) for this molecule: N#Cc1cccc(OCCN2CCCC2C(=O)NC2CC2)c1 (stereo unspecified)
-3.21%

Return INHIBITION (reported value) for this molecule: Cc1ccc2c(c1)CCC21CCN(C(=O)CO)CC1
10.1%

Give the reported INHIBITION for this molecule. c1cncc(-c2ccc3c(c2)CCC32CCN(Cc3nccs3)CC2)c1
57.1%

Check the records and state INHIBITION for O=C(NCCc1nccs1)[C@H](c1ccccc1)n1cnnn1
-20.8%

Quote INHIBITION reported for COCCN(Cc1ccoc1)C(=O)c1ccccc1Cl please.
-33.2%

Specify measured INHIBITION for CCN(CCNC(=O)c1cccnc1OCCOC)C1CC1 .
34.7%

----------
Each entry below carries its reported INHIBITION.
Test system: Plasmodium berghei
testDetails: Screen against P. berghei liver stage (PbLuc), transformed with Luciferase, at 10uM
Format: functional, HepG2
experimentalContext: tested at 10 uM
In all, about 69,000 compounds went through this assay and about 8,600 (12%) showed an effect of 50% or more. Many of the other results were omitted from the sample, so strong results are more common in it than they were.
State the answer as a number, implicitly in %.

compound	INHIBITION [%]
Cc1cc(=O)n2nc(Oc3ccc(F)c(F)c3)sc2n1	42.5
Cc1nc(C)c(S(=O)(=O)NC(=O)c2cccs2)s1	22.8
CCOc1cc(CN(C)CC(=O)O)ccc1OC(F)F	21
Cc1nn(C)c2cnn(CC(=O)NCc3ccc(F)cc3)c12	44.9
Cc1cccc(NC(=O)c2sccc2C)n1	-52.1

Identify INHIBITION associated with the compound COCCn1c2c(ccc1=O)CCN(C(=O)Cc1cccs1)CC2
-14.2

Supply measured INHIBITION of COc1cccc2c1OCC(NC(=O)NC1CCN(C3CC3)CC1)C2 (stereo unspecified) in your reply.
-3.16

Kindly indicate its recorded INHIBITION. Item: COc1cccc2c1OCC(NCc1cnn(-c3ccccc3)c1)C2 (stereo unspecified)
62.8

Supply reported INHIBITION belonging to this compound: Cc1noc(C)c1CN1CCn2cc(CN3CCOCC3)nc2C1
-50

State its INHIBITION: O=C(c1ccc[nH]1)N1CCc2ncc(Cn3cccn3)n2CC1
25.6

Read the entry CCOc1cc(CN(C)Cc2ccccc2)ccc1OC(F)F and write its reported INHIBITION.
68.8

----------
Tested on: Plasmodium berghei
testDetails: Screen against P. berghei liver stage (PbLuc), transformed with Luciferase, at 10uM
Format: functional, HepG2
experimentalContext: tested at 10 uM
Among all 69,000 compounds or so, about 8,600 (12%) showed an effect of 50% or more. The sample holds strong results, similar compounds and a random draw of the others, so the mix is not that of the screen.
# key: entry, value: INHIBITION
Write it as a number; the unit % goes unstated.

molecule	unitInfo	INHIBITION
Cc1cccc(N2CCC3(CCN(C(=O)c4cccnc4)CC3)C2)n1	%	19.5
COc1cc(F)c(S(=O)(=O)Nc2cnc(O)cc2C)cc1OC	%	-3.83
CSC(C)(C)CNC(=O)NC1CCN(CC(F)F)CC1	%	33.7
CCn1nc2c(cc1=O)CN(CC(=O)Nc1nc(C)c(C)s1)CC2	%	-0.188
Cn1[nH]c(CNc2cccc(Cl)c2)nc1=O	%	-0.473

Supply measured INHIBITION of Cc1nonc1OCCNC(=O)CCCc1ccc(Cl)cc1 in your reply.
57.8

Supply INHIBITION value. Item: Fc1ccc(CN2Cc3nccn3CC(CN3CCOCC3)C2)cc1 (stereo not given)
32.2

Name the recorded INHIBITION of the item CN1CCC(Cc2nc(-c3cnccn3)n(Cc3ccccc3)n2)CC1 in your answer.
-14.3

Specify INHIBITION for Cc1nn(C)cc1S(=O)(=O)NCC(c1ccccc1Cl)N1CCCC1 (stereo not given) and stop.
13.5

Assign INHIBITION to the following record: Cn1cccc1C(=O)N1CCC2(CCN(C(=O)c3cccnc3)C2)CC1
37.6

Retrieve INHIBITION measured for Cc1nc2n(n1)CC(NCCC(=O)Nc1cc(C)on1)CC2 (stereo not given) and print it.
-3.2

Dear colleague, please send me the reported INHIBITION for CC(=O)N1[C@H](CN(C)C)C[C@@H]2CN(C(=O)Cc3cccs3)CC[C@@H]21 when you can.
-61.5
